- Experimental System: T1, Rat IL-23R_huFC (rat; human, UniProt F1LX96 39-369)
- T1 sequence: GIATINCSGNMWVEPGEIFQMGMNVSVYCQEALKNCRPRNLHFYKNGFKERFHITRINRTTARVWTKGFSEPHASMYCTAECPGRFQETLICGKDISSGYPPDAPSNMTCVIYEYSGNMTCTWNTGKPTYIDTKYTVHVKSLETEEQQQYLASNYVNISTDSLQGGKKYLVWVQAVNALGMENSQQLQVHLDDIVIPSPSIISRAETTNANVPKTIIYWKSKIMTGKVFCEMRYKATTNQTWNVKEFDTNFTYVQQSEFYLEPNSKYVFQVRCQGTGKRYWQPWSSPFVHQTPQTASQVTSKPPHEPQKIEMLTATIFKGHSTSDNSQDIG
- Run Description: rat IL-23R competitive ELISA
pIC50: −log10 of the molar value. Bridges are numbered along the chain shown (N, C = ends). [ ]: non-standard residue; d: D form. 1Nal = N[C@@H](Cc1cccc2ccccc12)C(=O)O; Cit = NC(=O)NCCC[C@H](N)C(=O)O; βAla = NCCC(=O)O
Respond with criterion met for pIC50 values of 7 and above, criterion not met for values below.

Example results:
Ac-CADWVCY[1Nal][Cit]VFG[βAla][dK]-NH2 (disulfide 1-6 (inferred)) [Ac-CADWVCY-[1-Nal]-[Cit]-VFG-[β-Ala]-[(D)Lys]-NH2] : criterion met
Ac-CADWVCYWRKFG[βAla][dK]-NH2 (cysteine pairing not given here) [Ac-CADWVCYWRKFG-[βAla]-[(D)Lys]-NH2] : criterion met

Next item in the queue.
Has CRTWQCYWRVFGXK (not fully specified; Ac-; [N-MeArg]; [AEA]; [(D)Lys]; -NH2) [Ac-C-[N-MeArg]-TWQCYWRVFG-[AEA]-[(D)Lys]-NH2] a recorded pIC50 greater than or equal to 7?
criterion not met

// data source = patent US20190300590A1
